Data provenance: patent US20210070748A1

Molecular target: UniProt:Q08881
Sequence (Q08881 1-620): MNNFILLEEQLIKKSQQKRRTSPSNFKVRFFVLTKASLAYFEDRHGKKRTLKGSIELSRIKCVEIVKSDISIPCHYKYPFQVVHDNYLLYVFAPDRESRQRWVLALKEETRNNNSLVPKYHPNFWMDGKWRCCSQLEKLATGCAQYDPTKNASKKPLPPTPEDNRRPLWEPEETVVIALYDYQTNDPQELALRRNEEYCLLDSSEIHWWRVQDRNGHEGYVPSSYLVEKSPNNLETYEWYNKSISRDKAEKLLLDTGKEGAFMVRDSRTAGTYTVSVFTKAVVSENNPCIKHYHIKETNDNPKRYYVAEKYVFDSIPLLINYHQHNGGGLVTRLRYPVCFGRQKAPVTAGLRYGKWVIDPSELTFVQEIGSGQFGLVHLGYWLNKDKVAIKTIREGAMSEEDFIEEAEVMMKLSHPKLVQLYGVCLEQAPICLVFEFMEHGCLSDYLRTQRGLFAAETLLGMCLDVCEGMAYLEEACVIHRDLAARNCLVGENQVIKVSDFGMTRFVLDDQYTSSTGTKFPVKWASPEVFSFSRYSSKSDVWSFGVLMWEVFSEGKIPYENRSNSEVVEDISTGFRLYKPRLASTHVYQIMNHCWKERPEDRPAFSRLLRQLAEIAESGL
Test: Inhibition of a panel of kinases, in vitro HotSpot kinase assay: ITK
Type: biochemical
Settings: E compounds, Table 17
pIC50: −log10 of the molar value.
measurement_type: pIC50

Completed entries (count: 5):
chemical_smiles=C=CC(=O)N1CCC[C@@H](Nc2nnc(C(N)=O)c(Nc3cccc(C(=O)NCc4ccccc4)c3)n2)C1 measurement_type=pIC50 endpoint_value="7.00 to 8.00"
chemical_smiles=C=CC(=O)NC[C@@H]1CCCCN1c1nnc(C(N)=O)c(Nc2ccc(C(C)C)cc2)n1 measurement_type=pIC50 endpoint_value="5.00 to 6.00"
chemical_smiles=C=CC(=O)N1CCC[C@@H](Nc2nnc(C(N)=O)c(Nc3ccc(N4CCOCC4=O)cc3)n2)C1 measurement_type=pIC50 endpoint_value="≥ 8.00"
chemical_smiles=C=CC(=O)N1CCC[C@@H](Nc2nnc(C(N)=O)c(Nc3cccc(-c4ncco4)c3)n2)C1 measurement_type=pIC50 endpoint_value="7.00 to 8.00"
chemical_smiles=C=CC(=O)N1CCC[C@@H](Nc2nnc(C(N)=O)c(Nc3ccc(I)cc3)n2)C1 measurement_type=pIC50 endpoint_value="7.00 to 8.00"

Lab note: need pIC50 with UniProt:Q08881 for entry `C=CC(=O)N1CCC[C@@H](Nc2nnc(C(N)=O)c(Nc3ccc(-c4ncco4)cc3)n2)C1` , please look it up.
7.00 to 8.00

Query `C=CC(=O)N1CCC[C@@H](Nc2cnc(C(N)=O)c(Nc3ccc(C4CCN(C5CCCC5)CC4)cc3)n2)C1` next
≥ 8.00

====

Target: LCK (Homo sapiens, UniProt P06239)
Sequence (P06239 whole entry): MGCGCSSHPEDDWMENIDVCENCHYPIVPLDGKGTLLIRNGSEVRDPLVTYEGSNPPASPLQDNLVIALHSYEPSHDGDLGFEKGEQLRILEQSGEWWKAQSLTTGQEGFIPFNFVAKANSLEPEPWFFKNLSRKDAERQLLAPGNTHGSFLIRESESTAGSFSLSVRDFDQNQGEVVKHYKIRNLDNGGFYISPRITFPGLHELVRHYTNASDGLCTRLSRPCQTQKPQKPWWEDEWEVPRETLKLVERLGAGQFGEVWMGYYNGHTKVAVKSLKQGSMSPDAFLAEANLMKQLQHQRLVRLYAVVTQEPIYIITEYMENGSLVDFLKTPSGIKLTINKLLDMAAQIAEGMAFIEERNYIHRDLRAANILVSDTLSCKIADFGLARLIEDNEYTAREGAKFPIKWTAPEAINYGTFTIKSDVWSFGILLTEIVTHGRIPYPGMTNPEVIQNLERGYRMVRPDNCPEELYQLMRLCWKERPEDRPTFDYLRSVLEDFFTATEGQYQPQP
Experiment: Inhibition of a panel of kinases, in vitro HotSpot kinase assay: LCK
Format: biochemical
Details: Table 12, Formula C-I; 1 μM ATP; read-out: LCK (IC50)
pIC50: −log10 of the molar value. Counter-ions that a name gives are not always drawn.
measurement_type: pIC50

Consider the compound Cc1cc(Nc2nc(N(C)[C@H]3CCCN(C(=O)N(C)C)C3)cnc2C(N)=O)sn1 [Example C-8] and give its measured pIC50.
5.00 to 6.00

Query Cc1cc(Nc2nc(N(C)CC3CCN(C(=O)c4ccc(N(C)C)cc4)CC3)cnc2C(N)=O)sn1 [Example C-16] next
5.00 to 6.00

Query Cc1cc(Nc2nc(N[C@@H]3CCCNC3)cnc2C(N)=O)sn1 [Example C-1] next
> 7.00

Query Cc1cc(Nc2nc(N[C@H]3CCN(C(=O)N(C)C)C3)cnc2C(N)=O)sn1 [Example C-10] next
6.00 to 7.00

Query Cc1cc(Nc2nc(N[C@@H]3CCCN(C(=O)N(C)C)C3)cnc2C(N)=O)sn1 [Example C-5, hydrochloride] next
5.00 to 6.00

Query Cc1cc(Nc2nc(N[C@@H]3CCN(C(=O)c4ccc(N(C)C)cc4)C3)cnc2C(N)=O)sn1 [Example C-13] next
5.00 to 6.00
